These entries and their values trace back to ChEMBL document CHEMBL1130789.

The reader will find reported pKi values listed item by item below.
- test-target: Chymase (Homo sapiens, UniProt P23946)
- Sequence (P23946 whole entry): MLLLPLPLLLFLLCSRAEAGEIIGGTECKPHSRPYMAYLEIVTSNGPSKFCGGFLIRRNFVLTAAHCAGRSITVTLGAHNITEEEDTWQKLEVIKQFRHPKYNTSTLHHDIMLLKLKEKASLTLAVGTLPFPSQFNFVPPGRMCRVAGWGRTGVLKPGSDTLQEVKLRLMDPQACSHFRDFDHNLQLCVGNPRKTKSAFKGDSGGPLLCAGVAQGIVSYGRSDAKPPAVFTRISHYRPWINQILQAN
// pKi: -log10(molar conc.)

Give pKi (Chymase (Homo sapiens, UniProt P23946)) of the following molecule: CC(C)[C@H](NC(=O)OC(C)(C)C)C(=O)N1CCC[C@H]1C(=O)NC(Cc1ccccc1)C(=O)C(F)(F)C(=O)NCCC(=O)O (some centres not stated) 7.44

Give pKi (Chymase (Homo sapiens, UniProt P23946)) of the following molecule: CNC(=O)C(F)(F)C(=O)C(Cc1ccccc1)NC(=O)[C@@H]1CCCN1C(=O)[C@@H](NC(=O)OC(C)(C)C)C(C)C (some centres not stated) 7.54

Give pKi (Chymase (Homo sapiens, UniProt P23946)) of the following molecule: CC(C)[C@H](NS(=O)(=O)c1ccccc1)C(=O)N1CCC[C@H]1C(=O)NC(Cc1ccccc1)C(=O)C(F)(F)C(=O)Nc1cccc(C(=O)O)c1 (some centres not stated) 8.20

Give pKi (Chymase (Homo sapiens, UniProt P23946)) of the following molecule: CC(C)[C@H](NC(=O)OC(C)(C)C)C(=O)N1CCC[C@H]1C(=O)NC(Cc1ccccc1)C(=O)C(F)(F)C(=O)NCCc1ccccc1 (some centres not stated) 7.74

Give pKi (Chymase (Homo sapiens, UniProt P23946)) of the following molecule: CC(C)[C@H](NC(=O)OC(C)(C)C)C(=O)N1CCC[C@H]1C(=O)NC(Cc1ccccc1)C(=O)C(F)(F)C(=O)NCC(=O)O (some centres not stated) 7.88

---
Give pKi (Chymase (Homo sapiens, UniProt P23946)) of the following molecule: COC(=O)CNC(=O)C(F)(F)C(=O)C(Cc1ccccc1)NC(=O)[C@@H]1CCCN1C(=O)[C@@H](NC(=O)OC(C)(C)C)C(C)C (some centres not stated) 8.19

Give pKi (Chymase (Homo sapiens, UniProt P23946)) of the following molecule: CC(C)[C@H](NC(=O)OC(C)(C)C)C(=O)N1CCC[C@H]1C(=O)NC(Cc1ccccc1)C(=O)C(F)(F)C(=O)N1CCCC1C(=O)O (some centres not stated) 6.31
